- testedTarget: HA of ca A/teal/Hong Kong/W312/97 (H6N1) virus (influenza A virus)
- experimentDescription: cell-based or functional assay
// Neutralization IC50, H6-HK97 lookup, one value per entry

{"columns": ["binder", "u", "Neutralization IC50, H6-HK97"],
 "data": [
  ["Antibody 5 (antibody, V domains shown) VH: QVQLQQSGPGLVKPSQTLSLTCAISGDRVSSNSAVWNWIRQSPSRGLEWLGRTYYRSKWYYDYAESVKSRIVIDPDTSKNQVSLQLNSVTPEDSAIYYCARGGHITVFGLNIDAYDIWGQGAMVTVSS VL: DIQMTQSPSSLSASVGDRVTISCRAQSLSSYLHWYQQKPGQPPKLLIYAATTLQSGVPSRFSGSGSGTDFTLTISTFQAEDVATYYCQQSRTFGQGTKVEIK", "µg/mL", 2.27],
  ["Antibody 8 (antibody, V domains shown) VH: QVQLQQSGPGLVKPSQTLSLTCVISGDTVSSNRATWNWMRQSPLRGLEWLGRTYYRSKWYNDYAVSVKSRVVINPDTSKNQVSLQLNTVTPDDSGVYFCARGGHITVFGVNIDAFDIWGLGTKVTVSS VL: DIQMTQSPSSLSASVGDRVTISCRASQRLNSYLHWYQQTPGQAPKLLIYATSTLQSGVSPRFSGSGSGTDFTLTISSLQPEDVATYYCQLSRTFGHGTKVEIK", "µg/mL", 2.97],
  ["Antibody 6 (antibody, V domains shown) VH: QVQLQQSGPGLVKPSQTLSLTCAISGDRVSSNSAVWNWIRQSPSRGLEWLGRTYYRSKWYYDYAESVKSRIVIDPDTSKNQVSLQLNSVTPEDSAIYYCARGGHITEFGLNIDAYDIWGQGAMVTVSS VL: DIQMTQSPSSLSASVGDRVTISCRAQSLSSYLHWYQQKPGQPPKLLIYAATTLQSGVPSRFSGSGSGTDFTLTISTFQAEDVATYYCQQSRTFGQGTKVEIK", "µg/mL", 3.23]
]}
